molecular target: Candida albicans (Cat. No. 10231, ATCC) whole cells (Candida albicans); assay: luminescent ELISA, Fab on C. albicans cells
measured parameter: Approximate Affinity (µg/mL)
Return type: number; implicit unit µg/mL.

[
  {
    "binder": "1H12 Fab (Fab, V domains shown) VH: EVQLVESGGGLVKAGGSLILSCGVSNFRISAHTMNWVRRVPGGGLEWVASISTSSTYRDYADAVKGRFTVSRDDLEDFVYLQMHKMRVEDTAIYYCARKGSDRLSDNDPFDAWGPGTVVTVSP VL: GVVMTQSPSTLSASVGDTITITCRASQSIETWLAWYQQKPGKAPKLLIYKASTLKTGVPSRFSGSGSGTEFTLTISGLQFDDFATYHCQHYMPYRASFGQGTRVEIKR",
    "Approximate Affinity [µg/mL]": 9
  },
  {
    "binder": "A1G7 Fab (Fab, V domains shown) VH: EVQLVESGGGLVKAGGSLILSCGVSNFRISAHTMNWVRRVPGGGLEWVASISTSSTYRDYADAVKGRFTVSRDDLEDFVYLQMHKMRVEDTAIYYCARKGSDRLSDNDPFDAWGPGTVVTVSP VL: GVVMTQSPSTLSASVGDTITITCRASQSIETWLAWYQQKPGKAPKLLIYKASTLKTGVPSRFSGSGSGTEFTLTISGLQFDDFATYHCQHYTDHRGATFGQGTRVEIKR",
    "Approximate Affinity [µg/mL]": 1.5
  }
]

Consider now this further binder.
# Approximate Affinity lookup, item A4F10 Fab (Fab, V domains shown) VH: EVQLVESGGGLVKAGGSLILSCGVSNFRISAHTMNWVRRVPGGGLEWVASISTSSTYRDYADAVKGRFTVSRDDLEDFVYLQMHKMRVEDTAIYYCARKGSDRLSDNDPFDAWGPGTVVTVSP VL: GVVMTQSPSTLSASVGDTITITCRASQSIETWLAWYQQKPGKAPKLLIYKASTLKTGVPSRFSGSGSGTEFTLTISGLQFDDFATYHCQHYTDHYGATFGQGTRVEIKR
1

This collection of values is drawn from patent US20110189183A1.
